System: LG0567-F671-PDC KRAS tumor spheroid viability
Test: Anticancer human tumor LG0567-F671-PDC patient-derived lung adenocarcinoma cell line growth inhibition [KRAS2]
Conditions: second compound 1 µM; first compound 1 µM; active compounds read low; spheroids with HUVEC and MSC
Labelling: viability, T/C reported below 10% becomes MET; at or above becomes NOT MET.

Ask: I wonder whether O=C(c1cc(Cc2n[nH]c(=O)c3ccccc23)ccc1F)N1CCN(C(=O)C2CC2)CC1 + CC1OCC2(CCN(c3cnc(Sc4ccnc(N)c4Cl)c(N)n3)CC2)C1N has viability, T/C below 10%. Can you tell?
Result: NOT MET

Ask: Another compound to look at: CC1OCC2(CCN(c3cnc(Sc4ccnc(N)c4Cl)c(N)n3)CC2)C1N (stereo unspecified) + C=CC(=O)N1CCN(c2nc(=O)n(-c3c(C)ccnc3C(C)C)c3nc(-c4c(O)cccc4F)c(F)cc23)C(C)C1
Result: MET

Ask: Another compound to look at: CC1(C)CCC(CN2CCN(c3ccc(C(=O)NS(=O)(=O)c4ccc(NCC5CCOCC5)c([N+](=O)[O-])c4)c(Oc4cnc5[nH]ccc5c4)c3)CC2)=C(c2ccc(Cl)cc2)C1 + C=CC(=O)N1CCN(c2nc(OCC3CCCN3C)nc3c2CCN(c2cccc4cccc(C)c24)C3)CC1CC#N
Result: NOT MET

Ask: Another compound to look at: O=C(c1cc(Cc2n[nH]c(=O)c3ccccc23)ccc1F)N1CCN(C(=O)C2CC2)CC1 + C=CC(=O)N1CCN(c2nc(OCC3CCCN3C)nc3c2CCN(c2cccc4cccc(C)c24)C3)CC1CC#N
Result: NOT MET

Ask: Another compound to look at: COc1cc2nccc(Oc3ccc(NC(=O)C4(C(=O)Nc5ccc(F)cc5)CC4)cc3)c2cc1OC + COc1cc2nc(C)nc(NC(C)c3cc(N)cc(C(F)(F)F)c3)c2cc1OC1CCOC1
Result: NOT MET

----------
System: LG0567-F671-PDC KRAS tumor spheroid viability
Experiment: Anticancer human tumor LG0567-F671-PDC cell line growth inhibition [KRAS2]
Settings: second compound 0.316 µM; first compound 0.1 µM; active compounds read low; spheroids with HUVEC and MSC
Quantity Kind: viability, T/C (%)
Please respond with the number in % and leave the unit unwritten.

Ask: Param readout = viability, T/C; param system = LG0567-F671-PDC KRAS tumor spheroid viability; param query = Cn1ncnc1[C@H]1c2n[nH]c(=O)c3cc(F)cc(c23)N[C@@H]1c1ccc(F)cc1 + COc1cc2nc(C)nc(NC(C)c3cc(N)cc(C(F)(F)F)c3)c2cc1OC1CCOC1 ; response: value
Result: 75.9

Ask: Another molecule to look at: CN(C)C/C=C/C(=O)Nc1cc2c(Nc3ccc(F)c(Cl)c3)ncnc2cc1O[C@H]1CCOC1 + CNCc1ccccc1-c1csc(C(C)Nc2nc(C)nc3cc(OC)c(OC)cc23)c1
Result: 53.1

Ask: Another molecule to look at: CC(C)NCC(C(=O)N1CCN(c2ncnc3c2C(C)CC3O)CC1)c1ccc(Cl)cc1 (stereo not drawn) + COc1cc2nc(C)nc(NC(C)c3cc(N)cc(C(F)(F)F)c3)c2cc1OC1CCOC1
Result: 65.2

----------
Test system: LG0567-F671-PDC KRAS tumor spheroid viability
Experiment: Anticancer human tumor LG0567-F671-PDC cell line growth inhibition [KRAS2];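 further: drug exposure lasted seven days after spheroids formed for three days; 100% = DMSO vehicle control viability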
Settings: second compound 3.16 µM; first compound 0.0316 µM; active compounds read low; spheroids with HUVEC and MSC
Labelling: viability, T/C reported below 20% becomes 1; at or above becomes 0.

Ask: I wonder whether CC1OCC2(CCN(c3cnc(Sc4ccnc(N)c4Cl)c(N)n3)CC2)C1N (stereo unspecified) + C=CC(=O)N1CCN(c2nc(OCC3CCCN3C)nc3c2CCN(c2cccc4cccc(C)c24)C3)CC1CC#N has viability, T/C below 20%. Can you tell?
Result: 0

Ask: Another compound to look at: Cn1ncnc1[C@H]1c2n[nH]c(=O)c3cc(F)cc(c23)N[C@@H]1c1ccc(F)cc1 + CNCc1ccccc1-c1csc(C(C)Nc2nc(C)nc3cc(OC)c(OC)cc23)c1
Result: 1

Ask: Another compound to look at: CCNC(=O)CC1N=C(c2ccc(Cl)cc2)c2cc(OC)ccc2-n2c(C)nnc21 (stereo unspecified) + CC1OCC2(CCN(c3cnc(Sc4ccnc(N)c4Cl)c(N)n3)CC2)C1N
Result: 0

Ask: Another compound to look at: CC1(C)CCC(CN2CCN(c3ccc(C(=O)NS(=O)(=O)c4ccc(NCC5CCOCC5)c([N+](=O)[O-])c4)c(Oc4cnc5[nH]ccc5c4)c3)CC2)=C(c2ccc(Cl)cc2)C1 + CC1OCC2(CCN(c3cnc(Sc4ccnc(N)c4Cl)c(N)n3)CC2)C1N
Result: 0

Ask: Another compound to look at: CC(C)n1nc(-c2ccc3oc(N)nc3c2)c2c(N)ncnc21 + CC1OCC2(CCN(c3cnc(Sc4ccnc(N)c4Cl)c(N)n3)CC2)C1N
Result: 1

Ask: Another compound to look at: CCNC(=O)CC1N=C(c2ccc(Cl)cc2)c2cc(OC)ccc2-n2c(C)nnc21 (stereo unspecified) + COc1cc2nc(C)nc(NC(C)c3cc(N)cc(C(F)(F)F)c3)c2cc1OC1CCOC1
Result: 0

----------
Could you please report measured viability, T/C for the items listed next?
Tested on: LG0567-F671-PDC KRAS tumor spheroid viability
Experiment: Anticancer human tumor LG0567-F671-PDC cell line growth inhibition [KRAS2];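 further: drug exposure lasted seven days after spheroids formed for three days; 100% = DMSO vehicle control viability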
Conditions: second compound 0.316 µM; first compound 0.1 µM; active compounds read low; spheroids with HUVEC and MSC
Please respond with the number in % and leave the unit unwritten.

Ask: Item CC(C)n1nc(-c2ccc3oc(N)nc3c2)c2c(N)ncnc21 + CNCc1ccccc1-c1csc(C(C)Nc2nc(C)nc3cc(OC)c(OC)cc23)c1 has what recorded viability, T/C?
Result: 37.4

Ask: Another compound to look at: Cn1nccc1Nc1nccc(-c2cc3c(s2)C(C)(C)N(CCN2CCOCC2)C3=O)n1 + C=CC(=O)N1CCN(c2nc(OCC3CCCN3C)nc3c2CCN(c2cccc4cccc(C)c24)C3)CC1CC#N
Result: 25.8

Ask: Another compound to look at: O=C(c1cc(Cc2n[nH]c(=O)c3ccccc23)ccc1F)N1CCN(C(=O)C2CC2)CC1 + C=CC(=O)N1CCN(c2nc(=O)n(-c3c(C)ccnc3C(C)C)c3nc(-c4c(O)cccc4F)c(F)cc23)C(C)C1
Result: 22.8

Ask: Another compound to look at: CC(=O)OC12COC1CC(O)C1(C)C(=O)C(O)C3=C(C)C(OC(=O)C(O)C(NC(=O)OC(C)(C)C)c4ccccc4)CC(O)(C(OC(=O)c4ccccc4)C21)C3(C)C (stereo unspecified) + C=CC(=O)N1CCN(c2nc(OCC3CCCN3C)nc3c2CCN(c2cccc4cccc(C)c24)C3)CC1CC#N
Result: 15.7

Ask: Another compound to look at: CCN1CCN(Cc2ccc(Nc3ncc(F)c(-c4cc(F)c5nc(C)n(C(C)C)c5c4)n3)nc2)CC1 + CC1OCC2(CCN(c3cnc(Sc4ccnc(N)c4Cl)c(N)n3)CC2)C1N
Result: 25.5

Ask: Another compound to look at: Cn1ncnc1[C@H]1c2n[nH]c(=O)c3cc(F)cc(c23)N[C@@H]1c1ccc(F)cc1 + C=CC(=O)N1CCN(c2nc(=O)n(-c3c(C)ccnc3C(C)C)c3nc(-c4c(O)cccc4F)c(F)cc23)C(C)C1
Result: 21.6

----------
Tested on: LG0567-F671-PDC KRAS tumor spheroid viability
Assay: Anticancer human tumor LG0567-F671-PDC cell line growth inhibition [KRAS2];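 further: drug exposure lasted seven days after spheroids formed for three days; 100% = DMSO vehicle control viability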
Settings: second compound 3.16 µM; first compound 0.001 µM; active compounds read low; spheroids with HUVEC and MSC
Could you please report measured viability, T/C for the items listed next?

Ask: Item CC(C)n1nc(-c2ccc3oc(N)nc3c2)c2c(N)ncnc21 + C=CC(=O)N1CCN(c2nc(OCC3CCCN3C)nc3c2CCN(c2cccc4cccc(C)c24)C3)CC1CC#N has what recorded viability, T/C?
Result: 11.4%

Ask: Another compound to look at: Cn1ncnc1[C@H]1c2n[nH]c(=O)c3cc(F)cc(c23)N[C@@H]1c1ccc(F)cc1 + C=CC(=O)N1CCN(c2nc(OCC3CCCN3C)nc3c2CCN(c2cccc4cccc(C)c24)C3)CC1CC#N
Result: 16.5%

Ask: Another compound to look at: Cn1ncnc1[C@H]1c2n[nH]c(=O)c3cc(F)cc(c23)N[C@@H]1c1ccc(F)cc1 + COc1cc2nc(C)nc(NC(C)c3cc(N)cc(C(F)(F)F)c3)c2cc1OC1CCOC1
Result: 70%

----------
System: LG0567-F671-PDC KRAS tumor spheroid viability
Assay: Anticancer human tumor LG0567-F671-PDC cell line growth inhibition [KRAS2];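 further: drug exposure lasted seven days after spheroids formed for three days; 100% = DMSO vehicle control viability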
Details: second compound 0.316 µM; first compound 0.1 µM; active compounds read low; spheroids with HUVEC and MSC
Could you please report measured viability, T/C for the items listed next?
Please respond with the number in % and leave the unit unwritten.

Ask: Item COc1cc(Nc2ncc3c(n2)-c2ccc(Cl)cc2C(c2c(F)cccc2OC)=NC3)ccc1C(=O)O + CC1OCC2(CCN(c3cnc(Sc4ccnc(N)c4Cl)c(N)n3)CC2)C1N has what recorded viability, T/C?
Result: 26

Ask: Another molecule to look at: COc1cc(Nc2ncc3c(n2)-c2ccc(Cl)cc2C(c2c(F)cccc2OC)=NC3)ccc1C(=O)O + COc1cc2nc(C)nc(NC(C)c3cc(N)cc(C(F)(F)F)c3)c2cc1OC1CCOC1
Result: 50.2

Ask: Another molecule to look at: COc1cc2nccc(Oc3ccc(NC(=O)C4(C(=O)Nc5ccc(F)cc5)CC4)cc3)c2cc1OC + CC1OCC2(CCN(c3cnc(Sc4ccnc(N)c4Cl)c(N)n3)CC2)C1N
Result: 30.9

Ask: Another molecule to look at: CCNC(=O)CC1N=C(c2ccc(Cl)cc2)c2cc(OC)ccc2-n2c(C)nnc21 (centres undefined) + C=CC(=O)N1CCN(c2nc(OCC3CCCN3C)nc3c2CCN(c2cccc4cccc(C)c24)C3)CC1CC#N
Result: 109
